system: RPMI-8226 leukemia; assay: NCI-60 one-dose screen, 48 h; conditions: 10 µM unless noted
This is part of a sample that, as a whole, favours compounds with a hit. Of some 83,000 tested, about 20% had one in any assay. Active and inactive are the calls of the source. Rule for the calls: active = growth percent below 10; inactive = the rest.
Possible outcomes: t for active, f for inactive

1. C#Cc1nc(C2=C(C)C(O)CC2)cs1 (stereo not given): f
2. CS(=O)(=O)Nc1ccc(-c2nn(-c3ccc(S(C)(=O)=O)cc3)cc2/C=C/C(=O)c2ccc(NC(=O)CO[N+](=O)[O-])cc2)cc1: f
3. C=CCSc1ccc2c(c1)C(N1CCNCC1)=Nc1ccccc1O2: f
4. COc1cccc(COc2ccc(/C=C3/C(=O)Nc4cc(Cl)ccc43)cc2)c1: f
5. CC(=O)Oc1ccccc1C(=O)Nc1cc(C(C)C)ccc1C: t
6. Cc1ccc(-c2nc(C(Cl)Cl)nc3cc(-c4ccccc4)nn23)cc1: t
7. O=c1[nH]c2ccc(Cl)cc2cc1CSc1ccccc1Nc1nccc(-c2ccc(Cl)cc2)n1: f
8. c1ccc2c(NCCCn3ccnc3)c3oc4ccccc4c3nc2c1: t
9. CN(C)c1ccc(/C=c2\sc3nc4ccccc4n3c2=O)cc1: f
10. N#Cc1nc(-c2ccccc2)oc1S(N)(=O)=O: f

----------
Tested on: HT29 colon
Assay: NCI-60 one-dose screen, 48 h (100 = growth as untreated, 0 = no growth, -100 = all killed)
Details: 10 µM unless noted
Description: Growth inhibition of the HT29 human tumor cell line is measured as a screen for anti-cancer activity. Cells are grown in 96 well plates and exposed to the test compound for 48 hours. Compounds are tested at a single concentration, which is 10^-5 M for most compounds. The reported endpoint is percent growth (GI% or GIPRCNT), where numbers from 0 - 100% represent growth inhibition, and numbers from -100% - 0 represent cell death. For example, a value of 40 represents 60% growth inhibition. […]
This is part of a sample that, as a whole, favours compounds with a hit. Of some 83,000 tested, about 20% had one in any assay.
We begin with a simple list: items and their reported growth.
endpoint.label: growth (%)

1. NS(=O)(=O)c1ccc(Nc2nc(Nc3ccccc3)nc(-n3nc(-c4ccccc4)cc3-c3ccccc3)n2)cc1: 4.52
2. Cc1ccc2ccc3ccc(C)nc3c2n1.Cc1ccc2ccc3ccc(C)nc3c2n1.Oc1c(Cl)cc(Cl)c2ccc(CN3CCCCC3)nc12.[Ru]: -61.7
3. Cc1sc2nc(NCc3ccccc3Cl)[nH]c(=O)c2c1C: 103
4. CCOC(=O)c1c(NC(=O)c2cccc(C(F)(F)F)c2)sc2cc(O)ccc12: 105
5. O=C1Nc2ccc(Cl)cc2/C1=C/c1ccc(OCC(=O)c2ccc(Br)cc2)cc1: 103
6. Cc1cc(=O)oc2cc(OCCCOc3ccc(/C=C/C(=O)Nc4ccc(Cl)cc4)cc3)ccc12: 98.1
7. COc1cc(/C=C/C(=O)c2ccc(C)cc2)ccc1Oc1nc(NCCO)nc(N2CCOCC2)n1: 19.4
8. O=C(CCCN1C(=O)/C(=C/c2ccccc2F)SC1=S)N1CCOCC1: 99.2
9. N[C@@H](Cc1cn(-c2ccnc3ccccc23)nn1)C(=O)O: 102
10. O=c1[nH]c2ccccc2cc1CSc1ccccc1Nc1nccc(-c2ccc(C(F)(F)F)cc2)n1: 56.1
11. N#Cc1ccc(C(=O)CSc2nc(Nc3ccc(S(N)(=O)=O)cc3)c3ccccc3n2)cc1: 112
12. CCN1CCN(/C(=N\c2sc(-c3ccccc3)nc2-c2ccccc2)c2ccccc2)CC1: 32.6
13. Fc1ccc(-c2nc(C(Cl)Cl)nc3cc(-c4ccccc4)nn23)cc1: -9.69
14. C#Cc1nc(C2=C(C)C(OC(C)=O)/C(=N/OC(C)=O)C2)cs1 (stereo not given): -14.1
15. COc1cccc(-c2nn(-c3ccccc3)cc2-c2ccnc(N3CCN(C(=O)Nc4ccc(F)cc4)CC3)c2)c1: 70
16. O=C(O)CCCCCN1C(=O)/C(=C/c2ccc(O)c(O)c2)SC1=S: 116
17. CS(=O)(=O)c1ccc(-c2nc3ccccn3c2/C=N/Nc2nc(-c3ccc(Cl)cc3)cs2)cc1: 110
18. O=C1NC(=C(Cl)Cl)/C(=N/S(=O)(=O)N2CCCCC2CC2(C(F)(F)F)N=N2)N1 (stereo not given): -25.7
19. OC1CCN(CCCOc2c3ccccc3nc3c2oc2ccc(Cl)cc23)CC1: 1.25
20. C#Cc1nc(C2=C(C)C(OC(=O)CCC(=O)O)CC2)cs1 (stereo not given): 125

----------
test system: K-562 leukemia; assay: NCI-60 one-dose screen, 48 h; conditions: 10 µM unless noted
Compounds without any hit were thinned out: in the full panel of roughly 83,000, 20% have a hit. Activity calls are given as the source filed them. Rule for the calls: active = growth percent below 10; inactive = the rest.
Possible outcomes: YES for active, NO for inactive

1) N#Cc1ccc(/C=N/NC(=O)c2[nH]c3ccc(Br)cc3c2-c2ccccc2)s1: YES
2) COc1ccc(-c2nn3c(-c4ccccc4F)nnc3s2)cc1: NO
3) C#Cc1nc(C2=C(C)C(OC(C)=O)/C(=N/OC(C)=O)C2)cs1 (stereo not given): NO
4) C=CCn1c(SCC(=O)c2ccc(Br)cc2)nnc1-c1c[nH]c2ccccc12: NO
5) O=c1[nH]c2ccc(Cl)cc2cc1CSc1ccccc1Nc1nccc(-c2ccc(Cl)cc2)n1: NO

----------
test system: NCI-H460 lung; assay: NCI-60 one-dose screen, 48 h; details: 10 µM unless noted
Compounds without any hit were thinned out: in the full panel of roughly 83,000, 20% have a hit. Calls of active or inactive are those of the source. The calls were made as follows: active = growth percent below 10; inactive = the rest.
Possible outcomes: 1 (active), 0 (inactive)

1) COc1cc(OC)c(S(=O)(=O)NNC(=O)c2ccncc2)cc1C(=O)/C=C/c1ccc(C)cc1: 0
2) CN1CCN(Cc2ccc(NC(=O)c3cncc(C#Cc4cnc5ccc(N6CCSCC6)nn45)c3)cc2C(F)(F)F)CC1: 1
3) COc1ccc(/C=C2\SC(=Nc3cc(C)on3)NC2=O)cc1: 0
4) COc1ccc(-c2nc3ccc(-c4nnc(SCC(=O)Nc5ccc(C(=O)/C=C/c6ccccc6)cc5)o4)cc3[nH]2)cc1OC: 0
5) CCCSc1nc(Nc2ccc(/C(C)=N\NC(N)=S)cc2)c(C#N)c(-c2ccc(OC)cc2)n1: 0
6) CCCC(=O)NC(c1cccnc1)c1cc(C)c2cccnc2c1O (centres undefined): 0
7) COc1ccc(-n2c(SCC(=O)Nc3ccc(-c4nc5ccccc5[nH]4)cc3)nc3ccccc3c2=O)cc1: 1
8) COc1ccc(C(=O)/C=C/c2ccc(Oc3nc(NCCO)nc(N4CCOCC4)n3)c(OC)c2)cc1: 0
9) Cc1[nH]nc2ncc(C#Cc3cncc(C(=O)Nc4ccc(CN5CCN(C)CC5)c(C(F)(F)F)c4)c3)cc12: 0
10) [Cl][Ru].c1ccc(-c2cccc(-c3ccccn3)n2)nc1.c1ccc(-c2ccnc3c2ccc2c(-c4ccccc4)ccnc23)cc1: 0
11) CS(=O)(=O)c1ccc(-c2nc3ccccn3c2C=Nc2ccc(Cl)cc2)cc1: 0
12) CCN1C(=S)N(CC)C2C1NN=C1SC(c3ccccc3)=CC(=O)N12 (centres undefined): 0
13) COc1cc(/C=C/C(=O)c2ccc(C(F)(F)F)cc2)ccc1Oc1nc(NCCO)nc(N2CCOCC2)n1: 0
14) COc1cc(OC)c(C2SCC(=O)N2Nc2ncnc3ccccc23)cc1OC (centres undefined): 0
15) Nc1nc(N)c2c(n1)NC(c1ccc(C(F)(F)F)cc1)CC(c1ccc(Nc3nc(NCCO)nc(Nc4ccc(Cl)cc4)n3)cc1)=N2 (centres undefined): 1
16) CSc1ccc2c(c1)N(C(=O)/C(C#N)=C/c1c[nH]c3ccccc13)c1ccccc1S2: 0
17) O=C(N/N=C/c1ccc(Br)s1)c1[nH]c2ccc(Br)cc2c1-c1ccccc1: 1
18) N=C1CC(=O)NN1C(=O)CSc1nc2sc3c(c2c(=O)n1-c1ccc(Cl)cc1)CCCC3: 0
19) CCN1CCN(/C(=N\c2sc(-c3ccccc3)nc2-c2ccccc2)c2ccccc2)CC1: 0
20) CN1C(=S)N(C)C2C1NN=C1SC(c3ccccc3)=CC(=O)N12 (centres undefined): 0
21) C=CCn1c(SCC(=O)c2ccc(Br)cc2)nnc1-c1c[nH]c2ccccc12: 0
22) COC(=O)C1CN(S(=O)(=O)/N=C2\NC(=O)NC2=C(Cl)Cl)C1: 0
23) OC1CCN(CCCOc2c3ccccc3nc3c2oc2ccccc23)CC1: 1
24) O=C1Nc2ccc(Cl)cc2/C1=C/c1ccc(OCC(=O)c2ccc(Br)cc2)cc1: 0
25) OC1CCN(CCCOc2c3ccc(Cl)cc3nc3c2oc2ccc(Cl)cc23)CC1: 1
26) C=CCSc1ccc2c(c1)C(N1CCNCC1)=Nc1ccccc1O2: 0
27) O=C(N/N=C/c1ccc(Cl)s1)c1[nH]c2ccc(Br)cc2c1-c1ccccc1: 1
28) COc1ccc(NC2=C(Cl)C(=O)C(C)=C(C)C2=O)cc1OC: 0
29) Cc1ccc(/C=C/c2nn3c(-c4ccco4)nnc3s2)cc1C: 0
30) Fc1ccc(-c2nc(C(Cl)Cl)nc3cc(-c4ccccc4)nn23)cc1: 1
31) CN(C)c1ccc(/C=c2\sc3nc4ccccc4n3c2=O)cc1: 0
32) CCOc1ccc2nc(NC(=O)c3ccc(C(F)(F)F)cc3)sc2c1: 0
33) Cc1nc(-c2cc3ccccc3oc2=O)ccc1C(=O)/C=C/c1ccccn1: 0
34) O=C(CSc1nc2sc3c(c2c(=O)n1-c1ccc(Cl)cc1)CCCC3)N/N=C/c1ccc(F)cc1: 0
35) O=C1/C(=C/C2=Cc3ccccc3OC2)SC(=S)N1c1ccc(F)cc1: 0
36) O=C(Oc1ccc2ccc(=O)oc2c1)c1ccc(Cl)cc1: 0
37) C#Cc1nc(C2=C(C)/C(=N/OCc3ccccc3)CC2)cs1: 0
38) CCN1C(=S)N(CC)C2C1N=C(SC)N2/N=C/C=C/c1ccccc1[N+](=O)[O-] (centres undefined): 0
39) CCCC(=O)NC(c1ccc2c(c1)OC(F)(F)O2)c1cc(C)c2cccnc2c1O (centres undefined): 1

Hello, the source for this data is PubChem BioAssay (NCI), in case you need it.
